Test system: HL-60(TB) leukemia
Experiment: NCI tumour cell line growth inhibition, 48 h; in the data active = GI50 below about 0.43 µM; inactive = the rest
Outcome codes: Yes (active), No (inactive)

Molecule | Assigned Label
C/C(=N\NC(=S)N1CC2CCC(CC2)C1)c1cccc(C)n1 | Yes
N=C(N)c1ccc(-c2ccc(-c3cccs3)s2)s1 | No
COc1cc2ncnc(Nc3ccc4c(cnn4Cc4ccccc4)c3)c2cc1OC | No
CCN(CC)CCN(Cc1ccc(F)cc1)c1ccc(CO)c(Cl)c1 | No
C=C(CC(=O)O)C(=O)O (tested in a mixture with another compound) | No
COc1cc(C2C3=C(COC3=O)Nc3c2ccc2c3CCCC2)cc2c1OCO2 (centres undefined) | Yes
COC(=O)/C=C1/SC(N2N=C(c3cccs3)CC2c2ccc(F)cc2)=NC1=O (centres undefined) | No
CCC(=O)Nc1ccccc1C#C/C=C\C#Cc1ccccc1C(F)(F)F | No
Cn1c2ccccc2c2c3[nH][nH]c(=O)c3c3c4ccccc4[nH]c3c21 | No

* * *

System: MCF7 breast
Assay: NCI tumour cell line growth inhibition, 48 h; in the data active = GI50 below about 0.43 µM; inactive = the rest
Labels: Yes for active, No for inactive

Compound | Assigned Label
Cc1[nH]nc2c1N=C(c1ccccc1F)c1cc(C(N)=O)ccc1N2 | No
CCCCNC(=O)Oc1ccc(/C(=C(/C)Cc2ccc(OC)cc2)c2ccc(OCCN3CCCC3)cc2)cc1 | No
CCCNC(=O)c1ccc(Cl)cc1Cl | No
Cc1cc(N2CCCC2)nc(NCc2cc(Nc3ccnc4cc(Cl)ccc34)ccc2F)n1 | Yes
CN(C)CC(C(=O)Cc1ccccc1)c1ccccc1 (configuration not stated) | Yes
COc1cc(N2CCN(C(C)C)CC2)ccc1Nc1nc(Nc2cccc(F)c2C(=O)O)c2cc[nH]c2n1 | No
COc1cc2ncnc(Nc3ccc4c(cnn4Cc4ccccc4)c3)c2cc1OC | No
N#Cc1c(N)nc(N)nc1N[C@H](c1nc2c(F)ccc(Cl)c2c(=O)n1-c1cccnc1)C1CC1 | No
CC(=O)C1=C(C)N(C)C2(O)C=CC(=O)C3=C(O)c4ccccc4C(=O)C312 (configuration not stated) | No
Cc1cc(C(=O)O)c(C)n1-c1cccc(C(=O)O)c1 | No
Cc1ccc(C(SCC(N)C(=O)O)(c2ccccc2)c2ccccc2)cc1 (configuration not stated) | Yes
COc1ccc(/C=C2\CN(Cc3cn(CCNc4ccnc5cc(Cl)ccc45)nn3)C/C(=C\c3ccc(OC)c(OC)c3)C2=O)cc1OC | No

* * *

TGI values for the compounds below.
Tested on: CCRF-CEM leukemia
Experiment: NCI tumour cell line growth inhibition, 48 h

Compound | TGI
NC(Cc1ccc(S(=O)(=O)O)cc1)C(=O)NC(Cc1ccc(S(=O)(=O)O)cc1)C(=O)NC(Cc1ccc(S(=O)(=O)O)cc1)C(=O)O (stereo not drawn) | > 100 µM
Nc1c(N2CCOCC2)c(=O)nc2[nH]/c(=C\c3ccccc3)c(=O)n12 | > 100 µM
COc1ccc(/C(Cl)=C(\c2ccc(OCCN(C)C)cc2)c2ccc(OC(=O)C(C)(C)C)cc2)cc1 | 24.9 µM
O=C1NC(=O)/C(=C/c2ccc(S(=O)(=O)N/N=C\C(O)C(O)C(O)C(O)CO)cc2)N1 (stereo not drawn) | > 100 µM
COc1cc(Nc2nnc3n2S(=O)(=O)c2cc(C)c(Cl)cc2S3)cc(OC)c1 | > 100 µM
CCc1cc2ncc(CN3CCN(c4ccc(C(=O)NC)nc4)CC3)cc2[nH]c1=O | > 100 µM
O=C(CN1CCOCC1)c1ccc2c(c1)oc(=O)n2CCN1CCCC1 | > 100 µM
CCCCN[C@H]1C2C3CC4C5CC(C42)C1(C)C53 (stereo partly drawn) | > 100 µM
C=C(C)C(O)C(O)C[C@@H](C)C1CC[C@]23C[C@]12CCC1[C@@]2(C)CCC(OC(C)=O)C(C)(C)C2CC(OC2OC(CO)C(O)C(O)C2O)[C@]13C (stereo partly drawn) | 31.2 µM
Oc1cccc(/C=N/Nc2nnc(N/N=C/c3cccc(O)c3)c3ccccc23)c1 | 88.3 µM
CC1(S)CC2C(CC1Sc1ccccc1)C2(C)C (stereo not drawn) | > 100 µM
N#Cc1c(N)nc(N)nc1N[C@H](c1nc2c(F)ccc(Cl)c2c(=O)n1-c1cccnc1)C1CC1 | 95.1 µM
COc1ccc2c(c1)CC1c3c(ccc(OC)c3O)CC2N1C (stereo not drawn) | 80.6 µM
O=C(N/N=C/c1ccccc1O)c1ccccc1Nc1ccccc1C(=O)N/N=C/c1ccccc1O | > 100 µM
Cc1ccc(N=NN(C)C(=O)C(C)N)cc1 (stereo not drawn) | > 100 µM
C=CC1(NS(=O)(=O)c2ccc(C)cc2)CCC(C(C)(C)C)CC1 (stereo not drawn) | > 100 µM
CSc1nc(NC2OC(COC(C)=O)C(OC(C)=O)C(OC(C)=O)C2OC(C)=O)c(-c2csc(N)n2)c(=O)n1C (stereo not drawn) | > 100 µM
CC1=CC(C)C(C)N(CCNS(=O)(=O)c2ccc(C)cc2)c2ccccc21 (stereo not drawn) | 25.6 µM
N#Cc1c(Cl)nc2ccccc2c1N=[N+]=[N-] | 4.24 µM
O=C(CC(=O)N1N=C(N(c2ccccc2)c2ccccc2)CC1c1ccccc1)Nc1ccc(Cl)cc1 (stereo not drawn) | > 100 µM
CCCCN(CCCC)CCC(O)c1cc2c(Cl)cc(Cl)cc2c2cc(C(F)(F)F)ccc12 (stereo not drawn) | 29 µM
COC(=O)C1=C(C(=O)OC)SC(=C2S[C@@H]3[C@@H]4C[C@H]([C@@H]3S2)[C@H]2C(=O)OC(=O)[C@@H]42)S1 | > 100 µM
CC(C)(C)OC(=O)C1=C2C=C(O)C=CC2(C)N(Cc2ccccc2)C1=N (stereo not drawn) | > 38.2 µM
CCCCc1n(Cc2ccc3ccccc3c2)cc[n+]1Cc1ccc2ccccc2c1 | 4.03 µM
CN(C)CC1CCCCCCCCCC(CN(C)C)C1=O (stereo not drawn) | > 26.4 µM
CC1(C)C(=O)/C=C\C(=O)C(C)(C)C(=O)/C=C\C(=O)C(C)(C)C(=O)/C=C\C(=O)C(C)(C)C(=O)/C=C\C1=O | 23.4 µM
Clc1ccc(-c2ccc(-c3nnc(COc4ccc(OCc5nnc(-c6ccc(-c7ccc(Cl)cc7Cl)o6)o5)c(Cl)c4)o3)o2)c(Cl)c1 | 67.1 µM
C[CH2][Ge]([CH2]C)([CH2]C)[O]C(=O)CCC(=O)[O][Ge]([CH2]C)([CH2]C)[CH2]C | > 100 µM
Cc1sc(C)c2c1C(=O)CC2N (stereo not drawn) | 6.68 µM
O=C(O)CN1CCN(CC(=O)N2CCN(C(=O)OCc3ccccc3)CC2)CCN(CC(=O)O)CCN(CC(=O)N2CCN(C(=O)OCc3ccccc3)CC2)CC1 | > 100 µM
CC(/C=C/c1ccccc1)=N\NC(N)=S | > 100 µM
N=C(N)c1ccc(NCCOCCNc2ccc(C(=N)N)cc2)cc1 | > 100 µM
COc1cc(C2C3=C(COC3=O)Nc3c2ccc2c3CCCC2)cc2c1OCO2 (stereo not drawn) | > 100 µM
Cc1ccc(C2=C(c3ccc(C)cc3)C3(c4ccc(C)cc4)C4C(=O)c5ccccc5C(=O)C4C2(c2ccc(C)cc2)S3=O)cc1 (stereo not drawn) | > 100 µM
Cc1ccc(C(SCC(N)C(=O)O)(c2ccccc2)c2ccccc2)cc1 (stereo not drawn) | > 100 µM
COc1ccc2c(c1)CCCN2S(=O)(=O)c1ccccc1[N+](=O)[O-] | 80.9 µM
O=[N+]([O-])c1ccc(/C=C/c2csnn2)cc1 | > 100 µM
O=C(CC1(O)C(=O)Nc2ccccc21)c1ccc(O)cc1 (stereo not drawn) | > 100 µM

* * *

System: UACC-62 melanoma
Experiment: NCI tumour cell line growth inhibition, 48 h
We begin with a simple list: items and their reported TGI.

Molecule | TGI
COc1ccc(/C=C/C(=O)CC(=O)/C=C/c2ccc(OC)cc2)cc1 | > 100 µM
N#Cc1nc(-c2ccccn2)oc1N | > 100 µM
NCCCCC(=O)c1cccnc1 | > 100 µM
Oc1ccccc1C1=NOC(c2ccc(C(F)(F)F)cc2)C1 (centres undefined) | > 50 µM
O=S1(=O)CCCS(=O)(=O)C(c2ccccc2)=C1c1ccccc1 | > 100 µM
CN(C)CC(C(=O)Cc1ccccc1)c1ccccc1 (centres undefined) | 20.1 µM
O=c1c(Br)cc2c(-c3ccccc3)c3cc(Br)c(O)c(Br)c3oc-2c1Br | > 100 µM
CCCCCCCCCCCCCCCC(=O)OCC1OC(OC)C2NP(=O)(N(CCCl)CCCl)OC1C2O (centres undefined) | 8.71 µM
Clc1ccc2nc(-c3ccccc3)nc(Cl)c2c1 | > 100 µM
O=[N+]([O-])c1cc(Cl)ccc1OCc1ccccc1 | > 100 µM
COc1ccc2c(c1)CCCN2S(=O)(=O)c1ccccc1[N+](=O)[O-] | > 97.5 µM
CN(C)CCn1c(=O)c2ccc3c4c(nn3CCN(C)C)c3cc([N+](=O)[O-])ccc3n(c1=O)c24 | 0.952 µM
CCOC(=O)c1oc2ccc([N+](=O)[O-])c3c2c1CCC3 | > 54.8 µM
CCN(CC)CCN(Cc1ccc(F)cc1)c1ccc(CO)c(Cl)c1 | 20.8 µM
COc1ccc(N=Nc2c(C)c(C#N)c(=S)n(C3OC(CO)C(O)C(O)C3O)c2C)cc1 (centres undefined) | > 100 µM
CCOc1ccc(N=NS(=O)(=O)O)cc1 | > 100 µM
Cc1cc(C(=O)NC(CCC(=O)O)C(=O)O)sc1CCC1CNc2nc(N)[nH]c(=O)c2C1 (centres undefined) | > 100 µM
COc1cc([C@@]23OC[C@@H]4[C@@H](OC[C@@H]42)c2cc4c(cc23)OCO4)cc(OC)c1OC | > 100 µM
Oc1cccc2cc(Br)cnc12 | 29.2 µM
O=c1c2cc(Cl)ccc2[nH]c2cc(O)cc(O)c12 | > 10 µM
COC(=O)c1c[nH]c2c1-c1cc(C(=O)OCc3ccccc3)n(S(=O)(=O)c3ccc(C)cc3)c1C(=O)C2=O | 0.363 µM
O=C(Nc1cc(Cl)cc(Cl)c1)/C(Cc1nc2ccccc2[nH]c1=O)=N/NC(=O)c1ccncc1 | > 100 µM
Cc1cc2nc3cc(C)c(N)cc3[n+](-c3ccccc3)c2cc1N | 30.7 µM
COc1cc(-c2n/c(=C\c3c(O)[nH]c4cc(Cl)ccc34)cc3c2=Nc2ccccc2-3)cc(OC)c1OC | 14.1 µM
C[C@@H]1C2=CC[C@@]3(C)C(CCC3[C@H](C)[C@H]3C[C@@]4(C)O[C@@](c5cccnc5)(O3)OC4(C)C)[C@@H]2C2OC2[C@@]12CCC(=O)O2 (some centres undefined) | > 100 µM
Oc1ccc(CCNCc2cc3c(cc2Br)OCO3)cc1 | > 100 µM
CCN(CC)c1ccc2cc(-c3nnc(-c4ccccc4O)o3)c(=O)oc2c1 | 23.4 µM
CCOC(=O)[C@H]1Nc2ccc([N+](=O)[O-])cc2C2c3ccccc3CC21 (some centres undefined) | 30.6 µM
CN(C)C=NCCN1CCOCC1 | > 100 µM
Cc1cccc(N2C(=O)C(=O)C(c3nc4ccccc4s3)/C(=N/NC(=S)NN)C2=O)c1C (centres undefined) | > 100 µM
C=C1C(=O)OC2CC(=C)C3CC=C(C)C3CC12 (centres undefined) | 25.3 µM
CCCCc1n(Cc2ccc3ccccc3c2)cc[n+]1Cc1ccc2ccccc2c1 | 2.08 µM
CCOC(=O)CCC(NC(=O)OCc1ccccc1)C(=O)NC(CCC(=O)OCC)C(=O)NNC(=O)OC(C)(C)C (centres undefined) | > 100 µM
CCCCN[C@H]1C2C3CC4C5CC(C42)C1(C)C53 (some centres undefined) | > 100 µM
O=C1NC(=O)/C(=C/c2ccc(S(=O)(=O)N/N=C\C(O)C(O)C(O)C(O)CO)cc2)N1 (centres undefined) | > 100 µM
NC(=O)C(=O)C(c1ccccc1)S(=O)(=O)Cc1ccccc1 (centres undefined) | > 100 µM
COc1cc2c(cc1OC)NC(=O)NC(Cc1ccc3c(c1)OCO3)CC2 (centres undefined) | > 100 µM
CC1(C)OCC([C@H]2CC23SCCCS3)O1 (some centres undefined) | > 100 µM
OCCNCCCOc1ccc2ncnc(Nc3ccc(Oc4cccc(C(F)(F)F)c4)c(Cl)c3)c2c1 | 3.31 µM
Cc1cnc2c(c1)C(=O)C1=C(OC(C)(C)CC1O)C2=O (centres undefined) | 12.6 µM
N=C(N)c1ccc(-c2ccc(-c3cccs3)s2)s1 | 3.28 µM
C[C@]1(Cn2ccnn2)C(C(=O)O)N2C(=O)CC2S1(=O)=O (some centres undefined) | > 100 µM
CC1=C(Cl)C=CP(=O)(OC(C)C)C1 (centres undefined) | > 100 µM
C/C(=N\N=C(\[Se])N(C)C)c1ccccn1 | 2.4 µM

Recorded values, source PubChem BioAssay (NCI).
